Target: human mGluR5a receptor (Homo sapiens)
Construct: cDNA subcloned into pcDNA3.1(-)
Sequence (P41594 21-1180 isoform P41594-2 limits assumed): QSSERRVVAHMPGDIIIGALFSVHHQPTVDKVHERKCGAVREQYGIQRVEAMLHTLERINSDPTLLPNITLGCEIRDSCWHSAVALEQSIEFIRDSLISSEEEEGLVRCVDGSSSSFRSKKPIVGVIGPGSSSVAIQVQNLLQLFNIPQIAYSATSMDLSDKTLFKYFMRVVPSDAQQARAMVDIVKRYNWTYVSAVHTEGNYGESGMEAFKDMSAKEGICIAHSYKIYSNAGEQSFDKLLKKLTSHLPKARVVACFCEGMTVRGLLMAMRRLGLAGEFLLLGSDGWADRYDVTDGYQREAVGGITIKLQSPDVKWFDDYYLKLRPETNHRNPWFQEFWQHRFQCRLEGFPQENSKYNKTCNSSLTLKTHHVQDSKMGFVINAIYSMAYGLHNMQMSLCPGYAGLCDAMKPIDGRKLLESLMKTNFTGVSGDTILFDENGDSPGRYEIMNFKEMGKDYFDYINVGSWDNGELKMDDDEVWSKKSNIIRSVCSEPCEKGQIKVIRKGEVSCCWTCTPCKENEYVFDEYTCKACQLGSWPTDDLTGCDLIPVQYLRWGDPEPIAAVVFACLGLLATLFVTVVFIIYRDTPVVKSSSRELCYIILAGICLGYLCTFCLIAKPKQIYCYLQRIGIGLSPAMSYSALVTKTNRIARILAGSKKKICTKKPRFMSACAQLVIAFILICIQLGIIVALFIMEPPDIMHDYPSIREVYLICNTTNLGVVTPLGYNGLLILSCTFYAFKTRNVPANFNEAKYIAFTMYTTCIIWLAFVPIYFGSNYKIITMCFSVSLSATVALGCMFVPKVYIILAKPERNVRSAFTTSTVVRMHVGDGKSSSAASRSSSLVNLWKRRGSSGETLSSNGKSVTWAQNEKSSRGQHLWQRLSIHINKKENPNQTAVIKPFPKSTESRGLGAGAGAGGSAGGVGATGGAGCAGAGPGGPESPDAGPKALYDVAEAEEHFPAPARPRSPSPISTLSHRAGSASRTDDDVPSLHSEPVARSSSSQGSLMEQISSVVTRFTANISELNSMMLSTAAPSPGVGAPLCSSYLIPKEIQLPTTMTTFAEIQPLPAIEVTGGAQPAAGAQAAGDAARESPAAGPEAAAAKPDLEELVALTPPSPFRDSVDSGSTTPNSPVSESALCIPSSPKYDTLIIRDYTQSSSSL
Assay: Cell-based functional Ca2+ mobilization assay (FDSS), potentiation of glutamate EC20 response
Conditions: HEK cells transfected with human mGluR5 (H10H or H12H); in presence of EC20 glutamate
Recorded pEC50 determines the label; the label ranges are zone 1: < 6; zone 2: ≥ 6 and < 7; zone 3: ≥ 7

Task item: Form: Item = COc1nc(N2C(=O)c3cc(COc4ccccc4)nn3CC2C)ncc1F (stereo not drawn) ; Class = ?
Reply: zone 2

---

Item-by-item account of pEC50
Biological target: human mGluR5a receptor (Homo sapiens)
Construct: cDNA subcloned into pcDNA3.1(-)
Assay: Cell-based functional Ca2+ mobilization assay (FDSS), potentiation of glutamate EC20 response
Conditions: HEK cells transfected with human mGluR5 (H10H or H12H); in presence of EC20 glutamate; read-out: EC50
pEC50: −log10 of the molar value.

Sample answers from the record:
1. Cc1cccc(OCc2cc3n(n2)CCN(c2ccc(F)cc2)C3=O)n1 = < 5.00
2. COc1ccc(N2CCn3nc(COc4ccccc4)cc3C2=O)nn1 = < 5.00

Next up:
Given item "O=C1c2cc(COc3cncc(F)c3)nn2CCN1CC1CC1" , the value recorded as its pEC50 is < 5.00
